Test: Inhibition of methicillin-resistant Staphylococcus aureus Mu50 TRAP assessed as potentiation of vancomycin-induced antibiofilm activity cotreated with vancomycin for 24 hrs
Overview of recorded log10 EC50 for various compounds
Quantity Measured: log10 EC50 (log10 of the value in µM)

{"columns": ["Chem Smiles", "log10 EC50"],
 "data": [
  ["O=C(NC[C@]1(O)CO[C@H](CN2C(=O)c3ccccc3C2=O)[C@H]1O)c1ccnnc1", 1.06],
  ["O=C(NC[C@]1(O)CO[C@H](CN2C(=O)c3ccccc3C2=O)[C@H]1O)c1ccccc1Cl", 0.10],
  ["O=C(NC[C@H]1OC[C@H](O)[C@@H]1O)c1ccccc1Cl", 0.70],
  ["O=C(NC[C@H]1OC[C@@](O)(CNC(=O)c2ccc(-c3ccccc3)cc2)[C@@H]1O)c1ccnnc1", 1.66],
  ["O=C(NC[C@]1(O)CO[C@H](CNC(=O)c2ccncc2Cl)[C@H]1O)c1ccccc1", 2.37],
  ["O=C(NC[C@]1(O)CO[C@H](CNC(=O)c2ccccc2Cl)[C@H]1O)c1ccccc1F", 1.79],
  ["O=C(NC[C@]1(O)CO[C@H](CNC(=O)c2ccccc2Cl)[C@H]1O)c1ccccc1", 0.90],
  ["O=C(NC[C@H]1OC[C@@](O)(CNC(=O)c2ccccc2Cl)[C@@H]1O)c1ccccc1", 1.18]
]}
